Molecular target: D(2) dopamine receptor (Homo sapiens)
Sequence (P14416 whole entry): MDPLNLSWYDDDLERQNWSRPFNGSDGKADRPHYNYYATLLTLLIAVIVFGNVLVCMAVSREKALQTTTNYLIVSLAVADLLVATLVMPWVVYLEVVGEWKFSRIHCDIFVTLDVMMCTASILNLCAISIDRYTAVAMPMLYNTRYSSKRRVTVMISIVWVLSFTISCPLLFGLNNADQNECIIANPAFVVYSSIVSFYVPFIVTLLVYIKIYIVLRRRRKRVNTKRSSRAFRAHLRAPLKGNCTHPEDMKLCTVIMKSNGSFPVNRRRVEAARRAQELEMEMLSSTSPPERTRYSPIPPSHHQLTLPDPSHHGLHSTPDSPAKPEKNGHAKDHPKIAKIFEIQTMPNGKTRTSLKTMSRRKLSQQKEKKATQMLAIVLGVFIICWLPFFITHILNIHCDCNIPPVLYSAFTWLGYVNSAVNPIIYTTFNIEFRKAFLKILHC
Assay: Tested for the inhibitory activity against Dopamine D2 receptor in infected Sf9 cells
Assay type: cell-based
Catalogue of compounds with associated Ki
Please reply with the bare figure in µM and do not write the unit itself.

Answered examples (3):
compound="CCCN(C/C=C/I)C1CCc2ccc(O)cc2C1 (stereo not given)" readout_type=Ki readout_value=0.265
compound="CCCN(C/C=C/I)C1COc2ccc(O)cc2C1 (stereo not given)" readout_type=Ki readout_value=0.784
compound="CCCN(C/C=C/I)C1CCc2cc(O)ccc2C1 (stereo not given)" readout_type=Ki readout_value=0.547

Memo: CCCN(C/C=C/I)C1CCc2c(O)cccc2C1 (stereo not given) , reported Ki: 0.324

Hey, just so you know, these numbers are from ChEMBL document CHEMBL1127788.
